Recorded values, source patent US6531308B2.

System: wild-type ketoreductase from Z. rouxii (SEQ ID NO: 2)
assay: Reductase activity of Z. rouxii ketoreductase, substrate specificity (NADPH oxidation, absorbance at 340 nm)
Type: biochemical
measurement.context: substrate concentration 5 mM
Give % Relative Activity for every item shown.
Numbers only, in %.

See these solved cases before continuing.
{"columns": ["smiles.str", "system.tested", "unit.of.measurement", "% Relative Activity"],
 "data": [
  ["CCOC(=O)CC(=O)CCl", "wild-type ketoreductase from Z. rouxii (SEQ ID NO: 2)", "%", 42],
  ["CC(=O)CCc1ccc2c(c1)OCO2", "wild-type ketoreductase from Z. rouxii (SEQ ID NO: 2)", "%", 18],
  ["CC1(C)[C@H]2CC[C@]1(C)C(=O)C2=O", "wild-type ketoreductase from Z. rouxii (SEQ ID NO: 2)", "%", 100]
]}

Shift focus to the following entry.
Qu. Consider the compound CC1(C)[C@@H]2CC[C@@]1(C)C(=O)C2=O and give its measured % Relative Activity.
Ans. 32
